- target.or.test.system: Cholecystokinin receptor type A (Homo sapiens)
- Sequence (P32238 whole entry): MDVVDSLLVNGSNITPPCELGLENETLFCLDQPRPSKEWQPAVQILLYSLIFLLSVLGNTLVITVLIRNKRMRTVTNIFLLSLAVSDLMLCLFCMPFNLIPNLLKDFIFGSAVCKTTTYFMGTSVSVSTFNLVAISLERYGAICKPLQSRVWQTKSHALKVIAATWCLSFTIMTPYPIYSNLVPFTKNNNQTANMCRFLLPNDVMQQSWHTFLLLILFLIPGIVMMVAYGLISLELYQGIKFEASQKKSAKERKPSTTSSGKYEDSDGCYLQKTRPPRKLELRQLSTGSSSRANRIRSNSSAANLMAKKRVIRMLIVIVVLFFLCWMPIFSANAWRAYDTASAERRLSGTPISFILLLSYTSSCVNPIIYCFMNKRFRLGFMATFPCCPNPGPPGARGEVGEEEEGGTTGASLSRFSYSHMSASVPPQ
- measurement.notes: Displacement of [3H]L-364718 from human recombinant CCK1 receptor expressed in CHOK1 cells
- Type: cell-based, CHO-K1
quantity.measured: pKi
On this scale, pKi is minus log10 of a concentration expressed in M (mol/L).

Reported pKi for CNc1cccc(NC(=O)N[C@@H]2N=C(c3ccccn3)c3ccccc3N(CC(=O)C(C)(C)C)C2=O)c1 [NETAZEPIDE] : what is it?
7.54

Reported pKi for `CC(C)(C)C(=O)CN1C(=O)N(CC(=O)Nc2cccc(-c3nc(=O)o[nH]3)c2)N=C(C2CCCCC2)c2ccccc21` : what is it?
6.23

Reported pKi for `CC(C)(C)C(=O)CN1C(=O)N(CC(=O)Nc2cccc(-c3cn(CC(=O)O)cn3)c2)N=C(C2CCCCC2)c2ccccc21` : what is it?
5.77

Reported pKi for `O=C(O)CSc1cccc(NC(=O)CN2N=C(C3CCCCC3)c3ccccc3N(CC(=O)C3CCCC3)C2=O)c1` : what is it?
5.68

Reported pKi for `CC(C)(C)C(=O)CN1C(=O)N(CC(=O)Nc2cccc(-c3ccc(C(=O)O)o3)c2)N=C(C2CCCCC2)c2ccccc21` : what is it?
6.34

Reported pKi for `O=C(CN1N=C(C2CCCCC2)c2ccccc2N(CC(=O)C2CCCC2)C1=O)Nc1cccc(-c2nc(=O)o[nH]2)c1` : what is it?
6.33

Reported pKi for `CC(C)(C)C(=O)CN1C(=O)N(CC(=O)Nc2cccc3c2cnn3CC(=O)O)N=C(C2CCCCC2)c2ccccc21` : what is it?
5.16

* * *

- target.or.test.system: Gastrin/cholecystokinin type B receptor (Homo sapiens)
- measurement.notes: Displacement of […] from human recombinant CCK2 receptor expressed in NIH3T3 cells
- Type: cell-based
quantity.measured: Ki (nM)
Number only, in nM; omit the unit.

Reported Ki for `CC1(C(=O)CN2C(=O)N(CC(=O)Nc3cccc(C(=O)O)c3)N=C(C3CCCCC3)c3ccccc32)CCCC1` : what is it?
1.2

Reported Ki for `CC(C)CC1=NN(CC(=O)Nc2cccc(C(=O)O)c2)C(=O)N(CC(=O)C(C)(C)C)c2ccccc21` : what is it?
89.1

* * *

- target.or.test.system: Gastrin/cholecystokinin type B receptor (Homo sapiens, UniProt P32239)
- Sequence (P32239 whole entry): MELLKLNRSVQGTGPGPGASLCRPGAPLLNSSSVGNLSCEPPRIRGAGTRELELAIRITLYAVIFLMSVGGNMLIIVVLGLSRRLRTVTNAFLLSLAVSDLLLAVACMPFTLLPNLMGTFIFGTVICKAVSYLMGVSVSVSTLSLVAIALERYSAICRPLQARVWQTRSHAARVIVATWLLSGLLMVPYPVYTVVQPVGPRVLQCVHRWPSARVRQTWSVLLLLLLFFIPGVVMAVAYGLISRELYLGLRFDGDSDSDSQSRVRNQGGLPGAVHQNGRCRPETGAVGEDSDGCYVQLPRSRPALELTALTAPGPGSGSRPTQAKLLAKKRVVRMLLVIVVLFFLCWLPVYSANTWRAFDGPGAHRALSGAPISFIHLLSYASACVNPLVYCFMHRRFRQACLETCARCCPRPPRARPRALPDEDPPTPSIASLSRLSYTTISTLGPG
- measurement.notes: Displacement of [125I]BH-CCK-8S from human recombinant CCK2 receptor expressed in NIH3T3 cells
Hi there, I'd appreciate the recorded Ki for every entry that follows.
Number only, in nM; omit the unit.

Reported Ki for `CC(C)(C)C(=O)CN1C(=O)N(CC(=O)Nc2cccc(C(=O)O)c2)N=C(C2CCCC2)c2ccccc21` : what is it?
24

Reported Ki for `CC(C)(C)C(=O)CN1C(=O)N(CC(=O)Nc2ccc3c(ccn3CC(=O)O)c2)N=C(C2CCCCC2)c2ccccc21` : what is it?
0.776

Reported Ki for `CC(C)(C)C(=O)CN1C(=O)N(CC(=O)Nc2cccc(-c3cccn3CC(=O)O)c2)N=C(C2CCCCC2)c2ccccc21` : what is it?
0.912

Reported Ki for `CC(C)(C)C(=O)CN1C(=O)N(CC(=O)Nc2ccc3cnn(CC(=O)O)c3c2)N=C(C2CCCCC2)c2ccccc21` : what is it?
0.832

Reported Ki for `CC(C)(C)C(=O)CN1C(=O)N(CC(=O)Nc2cccc(-c3nc(=O)o[nH]3)c2)N=C(C2CCCCC2)c2ccccc21` : what is it?
0.2

Reported Ki for `O=C(CN1N=C(C2CCCCC2)c2ccccc2N(CC(=O)C2CCCC2)C1=O)Nc1cccc(C(=O)O)c1` : what is it?
1

* * *

- target.or.test.system: Cholecystokinin receptor type A (Homo sapiens)
- measurement.notes: Displacement of [3H]L-364718 from human recombinant CCK1 receptor expressed in CHOK1 cells
- Assay type: cell-based, CHO-K1
Hi there, I'd appreciate the recorded pKi for every entry that follows.
On this scale, pKi is minus log10 of a concentration expressed in M (mol/L).

Reported pKi for `CN(CC(=O)O)c1cccc(NC(=O)CN2N=C(C3CCCCC3)c3ccccc3N(CC(=O)C(C)(C)C)C2=O)c1` : what is it?
5.19

Reported pKi for `CC(C)(C)C(=O)CN1C(=O)N(CC(=O)Nc2ccc3c(cnn3CC(=O)O)c2)N=C(C2CCCCC2)c2ccccc21` : what is it?
5.09

Reported pKi for `O=C(CN1N=C(C2CCCCC2)c2ccccc2N(CC(=O)C2CCCCC2)C1=O)Nc1cccc(C(=O)O)c1` : what is it?
5.10

* * *

- target.or.test.system: Gastrin/cholecystokinin type B receptor (Homo sapiens, UniProt P32239)
- Sequence (P32239 whole entry): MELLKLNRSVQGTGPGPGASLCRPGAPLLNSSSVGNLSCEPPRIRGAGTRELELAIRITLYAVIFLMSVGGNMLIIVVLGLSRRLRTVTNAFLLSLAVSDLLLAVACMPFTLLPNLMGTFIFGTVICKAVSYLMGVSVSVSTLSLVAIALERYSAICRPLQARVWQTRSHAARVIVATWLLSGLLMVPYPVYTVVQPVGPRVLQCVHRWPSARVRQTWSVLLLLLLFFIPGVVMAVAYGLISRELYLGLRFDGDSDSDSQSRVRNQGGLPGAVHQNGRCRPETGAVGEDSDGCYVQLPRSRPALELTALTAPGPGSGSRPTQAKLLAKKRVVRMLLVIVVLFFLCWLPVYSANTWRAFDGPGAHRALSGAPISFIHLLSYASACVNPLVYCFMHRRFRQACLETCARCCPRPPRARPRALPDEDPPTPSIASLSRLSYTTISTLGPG
- measurement.notes: Displacement of [125I]BH-CCK-8S from human recombinant CCK2 receptor expressed in NIH3T3 cells
quantity.measured: pKi
On this scale, pKi is minus log10 of a concentration expressed in M (mol/L).

Reported pKi for `CC(C)(C)C(=O)CN1C(=O)N(CC(=O)Nc2cccc(CC(=O)O)c2)N=C(C2CCCCC2)c2ccccc21` : what is it?
8.67

Reported pKi for `O=C(O)Cc1cccc(NC(=O)CN2N=C(C3CCCCC3)c3ccccc3N(CC(=O)C3CCCC3)C2=O)c1` : what is it?
9.55

Reported pKi for `CC(C)(C)C(=O)CN1C(=O)N(CC(=O)Nc2cccc(-c3ccc(C(=O)O)o3)c2)N=C(C2CCCCC2)c2ccccc21` : what is it?
9.61

Reported pKi for `CC(C)(C)C(=O)CN1C(=O)N(CC(=O)Nc2cccc(-c3cccc(C(=O)O)c3)c2)N=C(C2CCCCC2)c2ccccc21` : what is it?
8.80

Reported pKi for `CN(CC(=O)O)c1cccc(NC(=O)CN2N=C(C3CCCCC3)c3ccccc3N(CC(=O)C(C)(C)C)C2=O)c1` : what is it?
8.97

Reported pKi for `CC(C)(C)C(=O)CN1C(=O)N(CC(=O)Nc2cccc(C(=O)NS(C)(=O)=O)c2)N=C(C2CCCCC2)c2ccccc21` : what is it?
8.41

Reported pKi for `O=C(CN1N=C(C2CCCCC2)c2ccccc2N(CC(=O)C2CCCCC2)C1=O)Nc1cccc(C(=O)O)c1` : what is it?
9.10

Reported pKi for `CC(C)(C)C(=O)CN1C(=O)N(CC(=O)Nc2cccc(NCC(=O)O)c2)N=C(C2CCCCC2)c2ccccc21` : what is it?
8.21

* * *

- target.or.test.system: Gastrin/cholecystokinin type B receptor (Homo sapiens, UniProt P32239)
- measurement.notes: Displacement of [125I]BH-CCK-8S from human recombinant CCK2 receptor expressed in NIH3T3 cells
quantity.measured: pKi
On this scale, pKi is minus log10 of a concentration expressed in M (mol/L).

Notebook: pull reported pKi for Gastrin/cholecystokinin type B receptor (Homo sapiens, UniProt P32239), entry `CC(C)(C)C(=O)CN1C(=O)N(CC(=O)Nc2cccc(C(=O)O)c2)N=C(C23CC4CC(CC(C4)C2)C3)c2ccccc21`
7.62

Notebook: pull reported pKi for Gastrin/cholecystokinin type B receptor (Homo sapiens, UniProt P32239), entry `CC(=O)CN1C(=O)N(CC(=O)Nc2cccc(C(=O)O)c2)N=C(C2CCCCC2)c2ccccc21`
6.48

Notebook: pull reported pKi for Gastrin/cholecystokinin type B receptor (Homo sapiens, UniProt P32239), entry `CN(c1cccc(NC(=O)CN2N=C(C3CCCCC3)c3ccccc3N(CC(=O)C(C)(C)C)C2=O)c1)c1nn[nH]n1`
8.71

Notebook: pull reported pKi for Gastrin/cholecystokinin type B receptor (Homo sapiens, UniProt P32239), entry `CC(C)(C)C(=O)CN1C(=O)N(CC(=O)Nc2cccc(-c3cn(CC(=O)O)cn3)c2)N=C(C2CCCCC2)c2ccccc21`
8.39

Notebook: pull reported pKi for Gastrin/cholecystokinin type B receptor (Homo sapiens, UniProt P32239), entry `CC(C)(C)C(=O)CN1C(=O)N(CC(=O)Nc2cccc(CCC(=O)O)c2)N=C(C2CCCCC2)c2ccccc21`
8.73

Notebook: pull reported pKi for Gastrin/cholecystokinin type B receptor (Homo sapiens, UniProt P32239), entry `CC(C)(C)C(=O)CN1C(=O)N(CC(=O)Nc2cccc(OCC(=O)O)c2)N=C(C2CCCCC2)c2ccccc21`
8.26

Notebook: pull reported pKi for Gastrin/cholecystokinin type B receptor (Homo sapiens, UniProt P32239), entry `CC(C)(C)C(=O)CN1C(=O)N(CC(=O)Nc2cccc(-c3nn[nH]n3)c2)N=C(C2CCCCC2)c2ccccc21`
9.00

Notebook: pull reported pKi for Gastrin/cholecystokinin type B receptor (Homo sapiens, UniProt P32239), entry `O=C(CN1N=C(C2CCCCC2)c2ccccc2N(CC(=O)N2CCCC2)C1=O)Nc1cccc(C(=O)O)c1`
7.79
